I'd be grateful if you could share measured IC50 for these entries.
# Test system: K562
# TEST_DETAILS: Cytotoxicity against human K562 cells after 96 hrs by trypan blue exclusion assay
# Assay type: functional, cell-based
# RUN_CONDITIONS: K562, 96 h

Solved cases below.
                                   molecule    result
0  COC(=O)C(Nc1cc(NS(=O)(=O)/C=C/c2c(OC)cc(OC)cc2OC)ccc1OC)c1ccc(F)cc1 (stereo not drawn)    2.5 µM
1  COc1cc(OC)c(/C=C/S(=O)(=O)Nc2cc(N)c(OC)c(N)c2)c(OC)c1    7.5 µM
2  COc1cc(OC)c(/C=C/S(=O)(=O)Nc2ccc(OC)c(NC(C)(C)C(=O)O)c2)c(OC)c1  0.005 µM
3  COc1ccc(NS(=O)(=O)/C=C/c2cc(OC)c(OC)c(OC)c2)cc1N     15 µM
4  COc1cc(OC)c(/C=C/S(=O)(=O)Nc2ccc(OC)c([N+](=O)[O-])c2)c(OC)c1      1 µM
5  COC(=O)C(Nc1cc(NS(=O)(=O)/C=C/c2c(OC)cc(OC)cc2OC)ccc1OC)c1ccc(Cl)cc1 (stereo not drawn)    2.5 µM
6  COc1cc(OC)c(/C=C/S(=O)(=O)Nc2ccc(OC)c(F)c2)c(OC)c1  0.075 µM

Now take the following molecule into account.
Any idea what IC50 was measured for COC(=O)CNc1cc(NS(=O)(=O)/C=C/c2c(OC)cc(OC)cc2OC)ccc1OC ?
0.35 µM
